assay_comment: blockers of DNA damage checkpoint Chk1 activation – imaging, HeLa, hydroxyurea, phospho-Chk1 nuclear intensity, primary screen (AID 1187); also: test concentration not given here
particulars: hydroxyurea-induced phospho-Chk1 immunofluorescence imaging, higher = more signal
Active and inactive are the calls of the source. No rule for the calls is given here.

molecule: O=C1C2C=CC(C(O)C=Cc3ccc([N+](=O)[O-])cc3)N(Nc3ccccc3F)C2C(=O)N1c1ccccc1 (stereo not given)
z-score: -1.16 (inactive)
//
molecule: NCCCCCNC(=O)[C@H]1C[C@H]2C(=O)N3CCC[C@H]3C(=O)N2[C@H]1c1ccc(O)cc1
z-score: -0.265 (inactive)
//
molecule: CCCC(=O)N(CCc1c[nH]c2ccccc12)[C@@H]1CC(C(=O)NCCO)=C[C@H](Oc2c(I)cc(CO)cc2OC)[C@H]1O
z-score: -2.68 (inactive)
//
molecule: CCCNC(=O)[C@@]1(Sc2ccc(C)cc2)CC(=O)N(Cc2ccccc2C(F)(F)F)[C@@H]1c1ccc(CO)cc1I
z-score: 0.0829 (inactive)
//
molecule: [N-]=[N+]=NCc1ccccc1[C@H]1OC(c2ccc(OCCCO)cc2)=N[C@@]1(Cc1ccccc1)C(=O)N1CCCCC1
z-score: -1.5 (inactive)
//
molecule: C=CCNC(=O)[C@@H]1[C@H]2C(=O)O[C@H](c3ccccc3)[C@H](c3ccccc3)N2[C@H](c2ccc(OCCO)cc2)[C@@]12C(=O)N(C(=O)OCCOC)c1ccc(C#CCC(C(=O)OC)C(=O)OC)cc12
z-score: 0.0115 (inactive)
//
molecule: O=C1[C@@]23C=C(Br)[C@H](C[C@@H]2COC3)[C@]12CO2
z-score: 0.343 (inactive)
//
molecule: C=CCNC(=O)[C@@H]1[C@H]2C(=O)O[C@H](c3ccccc3)[C@H](c3ccccc3)N2[C@H](c2ccc(OCCO)cc2)[C@@]12C(=O)N(C(=O)OCCOC)c1ccc(C#CCNC(N)=O)cc12
z-score: 0.487 (inactive)
//
molecule: O=C1[C@H]2C=C(Br)[C@H](C[C@@H]2OCCCCCCO)[C@@]12CO2
z-score: 0.231 (inactive)
//
molecule: O=C1C2C=CC(C(O)c3c(F)cccc3Cl)N(Nc3ccccc3F)C2C(=O)N1c1ccccc1 (stereo not given)
z-score: 0.435 (inactive)
//
molecule: CCOC(=O)C1=CCC(c2ccc(F)cc2)N(S(=O)(=O)c2ccc(C)cc2)C1 (stereo not given)
z-score: -0.996 (inactive)
//
molecule: COC(=O)c1c(CC[C@@H](CO)NC(=O)NCCc2c[nH]c3ccccc23)oc(C(=O)Cc2ccccc2)c1C(=O)OC
z-score: -0.098 (inactive)
//
molecule: CO[C@H]1O[C@H](CO)[C@@H](OC(=O)Nc2cccc(F)c2)[C@H](OC(=O)Nc2ccccc2)[C@H]1OC(=O)Nc1ccccc1
z-score: 0.161 (inactive)
//
molecule: C=C[C@H](C)[C@@H](OC(=O)Nc1ccc(SC)cc1)c1ccc(O)c2ccccc12
z-score: 0.893 (inactive)
//
molecule: C=CCC(OC(C)=O)[C@@H]1[C@@H](N(Cc2ccc(-c3cccc(C(F)(F)F)c3)o2)C(=O)Cc2ccc(OC)cc2)c2cc(OCCCO)ccc2N1C(=O)c1ccc2ccccc2c1 (stereo not given in full)
z-score: 0.284 (inactive)
